Assay: Dissociation constant, pKa of compound
Assay type: physicochemical
measurement kind: pKa

COc1ccc(/C=C2\NC(=O)NC2=O)cc1    8.9
COc1ccc(/C=C2/SC(=S)NC2=O)cc1    5.8

---

Overview of recorded pIC50 for various compounds
Target: Dual specificity tyrosine-phosphorylation-regulated kinase 1A (Homo sapiens)
Assay: Inhibition of recombinant human N-terminal His6-tagged DYRK1A catalytic domain expressed in Escherichia coli BL21(DE3) cells using KKISGRLSPIMTEQ-NH2 as substrate incubated for 15 mins in presence of [gamma-32P]ATP
pIC50: −log10 of the molar value.
measurement kind: pIC50

COc1ccc(/C=C2\NC(=O)NC2=O)cc1    5.19
CC1C/C(=C\c2ccc3c(c2)CCO3)C(=O)O1 (centres undefined)    6.77
COc1ccc(/C=C2\CC(C)OC2=O)cc1 (centres undefined)    5.92
O=C1OCC/C1=C\c1ccc2c(c1)OCO2    6.22
O=C1OCC/C1=C\c1ccc2c(c1)CCCO2    6.03
COc1ccc(/C=C2\NC(=O)SC2=O)cc1    5.89
O=C1NC(=S)N/C1=C\c1ccc2ncsc2c1    6.15
O=C1OCC/C1=C\c1ccc2c(c1)OCCO2    6.06
COc1ccc(/C=C2\CCOC2=O)cc1    5.74
COc1ccc(/C=C2\CCCOC2=O)cc1    5.96
CC1C/C(=C\c2ccc3ncsc3c2)C(=O)O1 (centres undefined)    5.97
O=C1OCC/C1=C\c1ccc2ncsc2c1    6.89
O=C1NC(=S)S/C1=C\c1ccc2c(c1)CCO2    7.00
O=C1OCC/C1=C\c1ccc2c(c1)CCO2    6.02
COc1ccc(/C=C2/SC(=S)NC2=O)cc1    6.60
O=C1NC(=S)S/C1=C\c1ccc2ncccc2c1    7.70
O=C1NC(=O)/C(=C/c2ccc3nccnc3c2)S1    7.52
O=C1NC(=S)S/C1=C\c1ccc2ncsc2c1    7.40

---

Molecular target: UniProt Q92630
Sequence (Q92630 whole entry): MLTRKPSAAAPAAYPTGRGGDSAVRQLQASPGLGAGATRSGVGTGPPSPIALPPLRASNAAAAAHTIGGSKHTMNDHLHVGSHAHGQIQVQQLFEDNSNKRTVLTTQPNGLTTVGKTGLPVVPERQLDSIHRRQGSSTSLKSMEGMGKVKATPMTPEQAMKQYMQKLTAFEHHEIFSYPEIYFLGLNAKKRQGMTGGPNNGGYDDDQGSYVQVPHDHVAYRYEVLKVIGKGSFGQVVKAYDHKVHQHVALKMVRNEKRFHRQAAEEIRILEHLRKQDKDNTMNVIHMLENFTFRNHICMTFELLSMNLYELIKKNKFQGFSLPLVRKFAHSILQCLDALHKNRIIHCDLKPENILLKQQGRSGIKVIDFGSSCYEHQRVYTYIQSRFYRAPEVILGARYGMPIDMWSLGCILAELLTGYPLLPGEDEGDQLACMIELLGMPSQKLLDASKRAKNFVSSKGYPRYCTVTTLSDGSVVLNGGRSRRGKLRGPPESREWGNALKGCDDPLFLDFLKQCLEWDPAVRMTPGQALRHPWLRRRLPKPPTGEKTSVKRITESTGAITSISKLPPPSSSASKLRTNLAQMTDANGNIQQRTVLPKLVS
Test: Inhibition of recombinant human N-terminal GST-tagged DYRK2 expressed in Escherichia coli BL21(DE3) cells using KKISGRLSPIMTEQ-NH2 as substrate incubated for 15 mins in presence of [gamma-32P]ATP
Details: read-out: IC50
measurement kind: IC50

O=C1NC(=S)S/C1=C\c1ccc2c(c1)CCO2    1 µM
O=C1OCC/C1=C\c1ccc2c(c1)OCCO2    2.04 µM
COc1ccc(/C=C2\NC(=O)SC2=O)cc1    9.2 µM
O=C1OCC/C1=C\c1ccc2c(c1)CCO2    0.82 µM
O=C1NC(=S)S/C1=C\c1ccc2ncccc2c1    0.06 µM
COc1ccc(/C=C2\CCCOC2=O)cc1    > 10 µM
CC1C/C(=C\c2ccc3c(c2)CCO3)C(=O)O1 (stereo unspecified)    0.43 µM
COc1ccc(/C=C2/SC(=S)NC2=O)cc1    > 10 µM
CC1C/C(=C\c2ccc3ncsc3c2)C(=O)O1 (stereo unspecified)    > 10 µM
O=C1NC(=S)N/C1=C\c1ccc2ncsc2c1    1.5 µM
O=C1OCC/C1=C\c1ccc2c(c1)CCCO2    > 10 µM
O=C1OCC/C1=C\c1ccc2ncsc2c1    0.06 µM
O=C1NC(=O)/C(=C/c2ccc3nccnc3c2)S1    0.1 µM
O=C1NC(=S)S/C1=C\c1ccc2ncsc2c1    0.2 µM
COc1ccc(/C=C2\CCOC2=O)cc1    > 10 µM
O=C1OCC/C1=C\c1ccc2c(c1)OCO2    0.99 µM
